# Run description: Example 3 Part C: tablet single ascending doses, morning fasted vs 8 p.m., plasma pharmacokinetics
# Type: in vivo, human
# Conditions used: human, in vivo, 60 mg, 9 a.m. administration (fasted), N = 12; Mean (SD)
Value kind: half-life

[
  {
    "Molecule": "COC[C@@]1(O)CC[C@@]2(C)[C@@H](CC[C@@H]3[C@@H]2CC[C@]2(C)[C@@H](C(=O)Cn4ccnc4)CC[C@@H]32)C1 [Compound 1]",
    "Result": "11.5 h"
  }
]

###

# Run description: Example 3 Part A: oral suspension administered at 4 p.m. vs 8 p.m., plasma pharmacokinetics
# Type: in vivo, human
# Conditions used: human, in vivo; oral suspension 60 mg 4 PM (4 h after lunch, 2 h before dinner), N = 15; Mean; read-out: t1/2 (converted)

[
  {
    "Smiles": "COC[C@@]1(O)CC[C@@]2(C)[C@@H](CC[C@@H]3[C@@H]2CC[C@]2(C)[C@@H](C(=O)Cn4ccnc4)CC[C@@H]32)C1",
    "Uom": "h",
    "half-life": 12
  }
]
